Experiment: BSK_3C_uPAR: BioMAP Diversity Plus: 3C Assay for Urokinase-type plasminogen activator receptor (uPAR) Biomarker Activity (AID 2282998)
Details: BioMAP 3C HUVEC, uPAR biomarker ELISA; actives raise or lower the signal
Procedure: BSK_3C is a cell-based, multiplexed-readout assay that uses umbilical vein endothelium, a human vascular primary cell, with measurements taken at 24 hours after chemical dosing in a 96-well plate.BSK_3CAR is an assay component measured in the BSK_3C assay. It measures uPAR antibody related to regulation of gene expression using ELISA technology.Data from the assay component BSK_3CAR was analyzed into 1 assay endpoint. […]
Calls of active or inactive are those of the source. Rule for the calls: active = hit-call score of the fitted dose curve at least 0.9, where 1 is the maximum; inactive = score below 0.9.
Choose one outcome from this list and give only that: true (1) = active, false (0) = inactive

Answered cases to consult:
Qu. Returns: the outcome recorded for `Cc1cc(=O)[nH]c(=S)[nH]1` in this assay.
Ans. false (0)

Qu. Returns: the outcome recorded for `Cc1cccc([N+](=O)[O-])c1C` in this assay.
Ans. false (0)

Qu. Returns: the outcome recorded for `CCOC(=O)C(C)(C)Oc1ccc(Cl)cc1` in this assay.
Ans. false (0)

---
Qu. Returns: the outcome recorded for `CN1CCCC1=O` in this assay.
Ans. false (0)

Qu. Returns: the outcome recorded for `NCCO` in this assay.
Ans. false (0)

Qu. Returns: the outcome recorded for `COCCOCCOC` in this assay.
Ans. false (0)

Qu. Returns: the outcome recorded for COCCOC[C@H](CC1(C(=O)NC2CCC(C(=O)O)CC2)CCCC1)C(=O)Oc1ccc2c(c1)CCC2 (stereo partly drawn) in this assay.
Ans. false (0)

Qu. Returns: the outcome recorded for `Cc1cccc(C)c1O` in this assay.
Ans. false (0)

Qu. Returns: the outcome recorded for `Cc1c(C(=O)O)c(O)cc2c1C(=O)c1c(O)c([C@@H]3O[C@H](CO)[C@@H](O)[C@H](O)[C@H]3O)c(O)c(O)c1C2=O` in this assay.
Ans. false (0)

Qu. Returns: the outcome recorded for `C=CCOC(=O)c1ccccc1C(=O)OCC=C` in this assay.
Ans. false (0)

Qu. Returns: the outcome recorded for `CC1(C)NC(=O)NC1=O` in this assay.
Ans. false (0)

Qu. Returns: the outcome recorded for `COc1cc(C=O)ccc1O` in this assay.
Ans. false (0)

Qu. Returns: the outcome recorded for `CCCCCCOCCO` in this assay.
Ans. false (0)

Qu. Returns: the outcome recorded for `CC1=C(/C=C/C(C)=C/C=C/C(C)=C/CO)C(C)(C)CCC1` in this assay.
Ans. false (0)

Qu. Returns: the outcome recorded for `CCCCCCCCCCCCCO` in this assay.
Ans. true (1)

Qu. Returns: the outcome recorded for `Nc1ccc2c(c1)C(=O)c1ccccc1C2=O` in this assay.
Ans. true (1)

Qu. Returns: the outcome recorded for `CCCCCCCCCCCCCCCCCC(=O)O` in this assay.
Ans. false (0)

Qu. Returns: the outcome recorded for `O=c1[nH]cc(F)c(=O)[nH]1` in this assay.
Ans. false (0)
